We begin with a simple list: items and their reported TGI.
- System: SNB-19 CNS
- method: NCI tumour cell line growth inhibition, 48 h

The cases that follow already have their TGI on record.
# substance_smiles, readout, reported_measurement
records = [
    ("O=C(c1ccccc1)[C@H]1Nc2ccc(Cl)cc2[C@H]2c3ccccc3O[C@H]21", "TGI", "29.3 µM"),
    ("CC(=O)Nc1ccc(CC[C@H]2CCC/C=C/[C@@H]3C[C@H](O)C[C@H]3[C@H](O)/C=C/C(=O)O2)cc1", "TGI", "> 100 µM"),
    ("COc1cc2c(c3nc4ccccc4nc13)-c1ccc(SC)c(=O)cc1[C@@H](NC(C)=O)CC2", "TGI", "> 100 µM"),
]

Let us move to another entry and its TGI.
Item `N#Cc1cnc2ccc(NCc3cnc[nH]3)cc2c1Nc1ccc(F)c(Cl)c1` with SNB-19 CNS - TGI?
> 100 µM

====

- System: HCT-15 colon
- method: NCI tumour cell line growth inhibition, 48 h
readout: GI50

The cases that follow already have their GI50 on record.
# compound, GI50
measured = [
    ("CCCCCCCCCCCC(c1ccccc1)[N+](C)(C)C (centres undefined)", "14.1 µM"),
    ("CCN(Cc1ccccc1)c1ccc(/C=C2\\COc3ccccc3C2=O)cc1", "106 µM"),
    ("Cc1cc[c]([Sb]2[O]C(CO)C(C(O)C(O)C(=O)O)[O]2)cc1 (centres undefined)", "> 100 µM"),
]

Let us move to another entry and its GI50.
What value of measured GI50 is listed for `C=C(C)[C@@H]1CC[C@]2(C(=O)OC)CC[C@]3(C)[C@H](CC[C@@H]4[C@@](C)(CCc5nn[nH]n5)[C@H](C(=C)C)CC[C@]43C)[C@@H]12` ?
13.2 µM

====

- System: UO-31 renal
- method: NCI tumour cell line growth inhibition, 48 h
readout: TGI

# compound, TGI
rows = [
    ("CN1CCN(c2n[nH]c(=O)c3c2nnn3Cc2ccccc2)CC1", "> 100 µM"),
    ("CSC(=Nc1ccccc1)c1c(C)[nH]n(-c2ccccc2)c1=O", "> 100 µM"),
    ("Fc1ccc(F)c(C=NC23CC4CC(CC(C4)C2)C3)c1", "> 10 µM"),
]

What value of measured TGI is listed for COc1ccc(C(O)C(c2ccc(OCc3ccccc3)cc2)c2ccc(OCc3ccccc3)cc2)cc1 (stereo unspecified) ?
> 100 µM

What value of measured TGI is listed for `N#C/C=C(/NC(=O)Nc1ccccc1)N1CCCC1` ?
> 100 µM

What value of measured TGI is listed for `O=c1c(-c2cccc3ccccc23)c(-c2cccc3ccccc23)c1=O` ?
> 100 µM

====

We begin with a simple list: items and their reported GI50.
- System: A498 renal
- method: NCI tumour cell line growth inhibition, 48 h

The cases that follow already have their GI50 on record.
# substance_smiles, tested_target, GI50
rows = [
    ("CN1CCC2(CC1)C(=O)Nc1cc(NC(=O)c3ccc4c(c3)C[C@@H]3C(C)(C)[C@H](O)[C@H](F)C[C@@]3(C)O4)ccc12", "A498 renal", "0.135 µM"),
    ("CCCN1CCC(Oc2cc(Nc3nc(Nc4cccc(F)c4C(N)=O)c4cc[nH]c4n3)c(OC)cc2Cl)CC1", "A498 renal", "2.95 µM"),
]

Let us move to another entry and its GI50.
What value of measured GI50 is listed for `COc1ccc2c(c1[N+](=O)[O-])CC[C@@H]1[C@@H]2CC[C@]2(C)C(=O)CC[C@@H]12` ?
352 µM

The measurements presented in this section are drawn from PubChem BioAssay (NCI).
